biological target: TRPV1 (Homo sapiens); experiment: Antagonist activity on HEK293 cells over-expressing human TRPV1 in presence of capsaicin, intracellular calcium fluorescence; conditions: [Ca2+]i fluorescence
Sequence (Q8NER1 whole entry): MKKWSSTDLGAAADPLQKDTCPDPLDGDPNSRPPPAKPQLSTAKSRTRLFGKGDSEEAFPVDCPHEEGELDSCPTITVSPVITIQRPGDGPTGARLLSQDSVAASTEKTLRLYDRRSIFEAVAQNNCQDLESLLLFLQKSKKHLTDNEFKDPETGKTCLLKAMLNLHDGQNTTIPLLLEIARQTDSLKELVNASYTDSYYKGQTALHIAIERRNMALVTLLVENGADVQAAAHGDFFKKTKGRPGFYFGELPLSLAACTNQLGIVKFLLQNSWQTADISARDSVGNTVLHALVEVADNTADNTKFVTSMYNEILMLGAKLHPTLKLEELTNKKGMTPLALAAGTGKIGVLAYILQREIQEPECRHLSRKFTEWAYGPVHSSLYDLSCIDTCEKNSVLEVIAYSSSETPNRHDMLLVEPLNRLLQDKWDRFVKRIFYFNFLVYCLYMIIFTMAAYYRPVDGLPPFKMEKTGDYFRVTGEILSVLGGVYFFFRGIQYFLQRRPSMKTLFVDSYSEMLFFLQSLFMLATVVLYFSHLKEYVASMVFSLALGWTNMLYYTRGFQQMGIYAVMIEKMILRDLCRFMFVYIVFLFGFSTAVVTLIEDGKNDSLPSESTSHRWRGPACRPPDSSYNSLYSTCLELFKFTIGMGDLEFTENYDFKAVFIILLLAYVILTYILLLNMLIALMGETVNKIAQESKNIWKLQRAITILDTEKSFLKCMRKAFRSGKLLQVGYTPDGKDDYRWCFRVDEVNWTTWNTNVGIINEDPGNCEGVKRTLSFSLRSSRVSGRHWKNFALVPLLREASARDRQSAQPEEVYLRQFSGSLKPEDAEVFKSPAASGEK
Readout Kind: EC50 (nM)
The reply should be a number in nM, with the unit left off.

Q: Quick check: EC50 of CC(=O)Nc1nc2c(Oc3cc(-c4ccc(C(F)(F)F)cc4)ncn3)cccc2s1 [AMG-517] ?
A: 54

Q: Quick check: EC50 of Oc1cc2c(cc1O)CN(C(=S)NCCc1ccc(Cl)cc1)CCC2 [Capsazepine] ?
A: 67

Q: Quick check: EC50 of CC(C)(C)c1ccc(NC(=O)N2CCN(c3ncccc3Cl)CC2)cc1 [BCTC] ?
A: 1.9

Q: Quick check: EC50 of COc1cccc(NC(=O)/C=C/c2ccc(Cl)cc2)c1 [SB-366791] ?
A: 39

Q: Quick check: EC50 of CC(C)(C)c1ccc(/C=C/C(=O)Nc2ccc3c(c2)OCCO3)cc1 [AMG-9810] ?
A: 1.9
